All values here come from patent US10793554B2.

# ASSAY SUMMARY: Kinetic solubility of Form B in formulation (0.5% MC, 0.5% Tween 80 in water), HPLC
# Type: physicochemical
# TEST CONTEXT: 0.5% methyl cellulose and 0.5% Tween 80 in water, aqueous with cosolvent or surfactant or cyclodextrin, thermodynamic from solid; 24 h; 0.5% MC and 0.5% Tween 80 in water, RT
REPORTED ENDPOINT: solubility at 24 h (µg/mL)
Entry rule: numbers only, all in µg/mL.

Inquiry: Give the measured solubility at 24 h for Cn1cnc2cc(-c3ccc(C(=O)N4CCN(C(=O)C5(O)CC5)CC4)c(F)c3)ccc21 [Form B]
Reply text: 60
